experiment: Clearance in monkey at 0.1 mg/kg, iv by HPLC/MS/MS analysis; type: ADME, organism-based, Macaca mulatta; conditions: rhesus monkey, in vivo

[
  {
    "Smiles": "COc1ncc(-c2ccc3nccc(-c4ccnnc4)c3c2)cc1NS(=O)(=O)c1ccc(F)cc1F",
    "clearance": "3.6 mL/min/kg"
  }
]

* * *

assay: Oral bioavailability in mouse at 2.6 mg/kg by HPLC/MS/MS analysis; assay type: ADME, organism-based; conditions: in vivo

[
  {
    "Molecule": "COc1ncc(-c2ccc3nccc(-c4ccnnc4)c3c2)cc1NS(=O)(=O)c1ccc(F)cc1F [OMIPALISIB]",
    "bioavailability / %": 100
  }
]

* * *

assay: Volume of distribution at steady state in dog at 0.1 mg/kg, iv by HPLC/MS/MS analysis; assay type: ADME, organism-based, Canis lupus familiaris; settings: in vivo, read-out: Vdss

[
  {
    "Smiles": "COc1ncc(-c2ccc3nccc(-c4ccnnc4)c3c2)cc1NS(=O)(=O)c1ccc(F)cc1F",
    "Vd / L/kg": 0.7
  }
]

* * *

assay: Oral bioavailability in rat at 2.1 mg/kg by HPLC/MS/MS analysis; type: ADME, organism-based; details: in vivo

[
  {
    "Smiles": "COc1ncc(-c2ccc3nccc(-c4ccnnc4)c3c2)cc1NS(=O)(=O)c1ccc(F)cc1F",
    "bioavailability (%)": 81
  }
]

* * *

test: Clearance in mouse at 0.6 mg/kg, iv by HPLC/MS/MS analysis; format: ADME, organism-based; conditions: in vivo
Reported metric: clearance (mL/min/kg)

[
  {
    "Compound": "COc1ncc(-c2ccc3nccc(-c4ccnnc4)c3c2)cc1NS(=O)(=O)c1ccc(F)cc1F [OMIPALISIB]",
    "Measured": 10
  }
]

* * *

biological target: Phosphatidylinositol 4,5-bisphosphate 3-kinase catalytic subunit alpha isoform (Homo sapiens, UniProt P42336); assay: Inhibition of PI3Kalpha (unknown origin) using PIP2 as substrate preincubated for 15 mins followed by substrate addition and measured after 1 hr in presence of ATP by HTRF assay
Sequence (P42336 whole entry, canonical isoform): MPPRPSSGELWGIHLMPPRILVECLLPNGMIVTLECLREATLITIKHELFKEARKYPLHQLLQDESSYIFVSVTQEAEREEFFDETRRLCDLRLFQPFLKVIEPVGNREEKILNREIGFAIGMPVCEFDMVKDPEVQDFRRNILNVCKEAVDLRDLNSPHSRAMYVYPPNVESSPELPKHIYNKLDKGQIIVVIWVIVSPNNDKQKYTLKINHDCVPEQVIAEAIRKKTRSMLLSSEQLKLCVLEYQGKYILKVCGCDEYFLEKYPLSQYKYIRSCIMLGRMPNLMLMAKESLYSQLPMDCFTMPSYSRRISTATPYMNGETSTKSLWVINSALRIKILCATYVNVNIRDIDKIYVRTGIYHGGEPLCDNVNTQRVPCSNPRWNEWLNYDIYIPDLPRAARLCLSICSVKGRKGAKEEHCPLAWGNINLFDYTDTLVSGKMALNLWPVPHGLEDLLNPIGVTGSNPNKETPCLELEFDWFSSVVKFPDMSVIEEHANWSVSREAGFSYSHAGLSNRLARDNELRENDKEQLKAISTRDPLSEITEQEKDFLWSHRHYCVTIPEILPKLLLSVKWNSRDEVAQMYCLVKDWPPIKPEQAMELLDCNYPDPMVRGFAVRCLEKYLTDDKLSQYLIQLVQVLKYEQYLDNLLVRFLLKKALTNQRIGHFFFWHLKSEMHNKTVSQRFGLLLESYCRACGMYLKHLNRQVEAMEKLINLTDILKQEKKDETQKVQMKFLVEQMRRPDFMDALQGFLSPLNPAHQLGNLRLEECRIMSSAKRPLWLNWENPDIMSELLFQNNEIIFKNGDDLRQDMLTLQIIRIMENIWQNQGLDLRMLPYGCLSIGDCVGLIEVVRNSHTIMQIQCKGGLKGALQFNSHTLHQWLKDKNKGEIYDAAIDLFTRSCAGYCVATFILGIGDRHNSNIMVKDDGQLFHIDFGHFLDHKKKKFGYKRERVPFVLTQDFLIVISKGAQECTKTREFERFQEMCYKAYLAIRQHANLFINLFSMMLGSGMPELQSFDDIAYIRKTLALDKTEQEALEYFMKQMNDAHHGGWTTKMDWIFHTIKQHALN
log10 of IC50 values by entry
Reported metric: log10 of IC50 (log10 of the value in nM)

[
  {
    "Smiles": "O=S(=O)(Nc1ccc(F)cc1F)c1cncc(-c2ccc3nccc(-c4ccncc4)c3c2)c1",
    "log10 of IC50": 0.00
  },
  {
    "Smiles": "O=C1NC(=O)/C(=C/c2ccc3nccc(-c4ccncc4)c3c2)S1",
    "log10 of IC50": 0.30
  },
  {
    "Smiles": "Nc1ncc(-c2ccc3nccc(-c4ccncc4)c3c2)cc1S(N)(=O)=O",
    "log10 of IC50": 1.00
  },
  {
    "Smiles": "c1cc(-c2ccnc3ccc(-c4cnc5[nH]ncc5c4)cc23)ccn1",
    "log10 of IC50": 0.85
  },
  {
    "Smiles": "c1cc(-c2ccnc3ccc(-c4ccc5[nH]ncc5c4)cc23)ccn1",
    "log10 of IC50": 1.86
  },
  {
    "Smiles": "c1ccc(-c2ccc3nccc(-c4ccncc4)c3c2)cc1",
    "log10 of IC50": 3.26
  },
  {
    "Smiles": "Nc1ncc(-c2ccc3nccc(-c4ccncc4)c3c2)cc1S(=O)(=O)Nc1ccc(F)cc1F",
    "log10 of IC50": 0.00
  },
  {
    "Smiles": "O=S(=O)(Nc1cncc(-c2ccc3nccc(-c4ccncc4)c3c2)c1)c1ccc(F)cc1F",
    "log10 of IC50": -1.00
  },
  {
    "Smiles": "c1cncc(-c2ccc3nccc(-c4ccncc4)c3c2)c1",
    "log10 of IC50": 2.41
  }
]

* * *

experiment: Clearance in rat at 0.4 mg/kg, iv by HPLC/MS/MS analysis; assay type: ADME, organism-based; conditions: in vivo
Reported metric: clearance (mL/min/kg)

[
  {
    "Smiles": "COc1ncc(-c2ccc3nccc(-c4ccnnc4)c3c2)cc1NS(=O)(=O)c1ccc(F)cc1F",
    "Reported metric": "clearance",
    "Measured": 2.3
  }
]

* * *

Target: Cytochrome P450 1A2 (Homo sapiens)
Sequence (P05177 whole entry): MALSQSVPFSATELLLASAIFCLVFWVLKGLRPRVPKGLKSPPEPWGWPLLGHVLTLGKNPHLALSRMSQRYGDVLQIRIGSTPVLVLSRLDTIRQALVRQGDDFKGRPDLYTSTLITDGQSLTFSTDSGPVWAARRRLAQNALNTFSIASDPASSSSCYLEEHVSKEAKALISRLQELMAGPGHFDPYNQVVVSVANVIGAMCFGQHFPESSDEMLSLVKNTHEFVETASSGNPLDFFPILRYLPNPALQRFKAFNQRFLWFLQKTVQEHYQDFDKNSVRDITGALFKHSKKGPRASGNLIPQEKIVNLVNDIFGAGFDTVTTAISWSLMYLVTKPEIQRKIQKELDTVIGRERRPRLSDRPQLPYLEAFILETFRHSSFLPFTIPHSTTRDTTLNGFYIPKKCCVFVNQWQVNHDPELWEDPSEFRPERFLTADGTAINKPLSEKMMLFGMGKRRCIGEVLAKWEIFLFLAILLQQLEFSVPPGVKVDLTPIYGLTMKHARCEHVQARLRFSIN
pIC50: −log10 of the molar value.

[
  {
    "Smiles": "COc1ncc(-c2ccc3nccc(-c4ccnnc4)c3c2)cc1NS(=O)(=O)c1ccc(F)cc1F",
    "pIC50": "< 4.60"
  }
]

* * *

assay: Oral bioavailability in dog at 0.5 mg/kg by HPLC/MS/MS analysis; format: ADME, organism-based, Canis lupus familiaris; conditions: in vivo
Reported metric: bioavailability

[
  {
    "Compound": "COc1ncc(-c2ccc3nccc(-c4ccnnc4)c3c2)cc1NS(=O)(=O)c1ccc(F)cc1F [OMIPALISIB]",
    "Reported metric": "bioavailability",
    "Measured": "80%"
  }
]

* * *

assay: Half life in monkey at 0.1 mg/kg, iv by HPLC/MS/MS analysis; type: ADME, organism-based, Macaca mulatta; conditions: rhesus monkey, in vivo

[
  {
    "Smiles": "COc1ncc(-c2ccc3nccc(-c4ccnnc4)c3c2)cc1NS(=O)(=O)c1ccc(F)cc1F",
    "half-life, h": 3.5
  }
]

* * *

assay: Half life in dog at 0.1 mg/kg, iv by HPLC/MS/MS analysis; assay type: ADME, organism-based, Canis lupus familiaris; conditions: in vivo
Reported metric: half-life (h)

[
  {
    "Compound": "COc1ncc(-c2ccc3nccc(-c4ccnnc4)c3c2)cc1NS(=O)(=O)c1ccc(F)cc1F [OMIPALISIB]",
    "Unit tag": "h",
    "Measured": 1.3
  }
]

* * *

test: Volume of distribution at steady state in monkey at 0.1 mg/kg, iv by HPLC/MS/MS analysis; type: ADME, organism-based, Macaca mulatta; conditions: rhesus monkey, in vivo, read-out: Vdss

[
  {
    "Smiles": "COc1ncc(-c2ccc3nccc(-c4ccnnc4)c3c2)cc1NS(=O)(=O)c1ccc(F)cc1F",
    "Unit tag": "L/kg",
    "Vd": 0.8
  }
]

* * *

assay: Oral bioavailability in monkey at 0.6 mg/kg by HPLC/MS/MS analysis; assay type: ADME, organism-based, Macaca mulatta; conditions: rhesus monkey, in vivo

[
  {
    "Smiles": "COc1ncc(-c2ccc3nccc(-c4ccnnc4)c3c2)cc1NS(=O)(=O)c1ccc(F)cc1F",
    "bioavailability / %": 49
  }
]

* * *

assay: Dose normalized AUC in rat at 2.1 mg/kg, po measured upto 24 hrs by HPLC/MS/MS analysis; assay type: ADME, organism-based; conditions: in vivo
AUC/dose values by entry

[
  {
    "Smiles": "Nc1ncc(-c2ccc3nccc(-c4ccncc4)c3c2)cc1S(=O)(=O)Nc1ccc(F)cc1F",
    "AUC/dose (ng·h/mL/mg/kg)": 250
  },
  {
    "Smiles": "COc1ncc(-c2ccc3nccc(-c4ccnnc4)c3c2)cc1NS(=O)(=O)c1ccc(F)cc1F",
    "AUC/dose (ng·h/mL/mg/kg)": 6100
  },
  {
    "Smiles": "O=S(=O)(Nc1ccc(F)cc1F)c1cncc(-c2ccc3nccc(-c4ccncc4)c3c2)c1",
    "AUC/dose (ng·h/mL/mg/kg)": 920
  },
  {
    "Smiles": "O=S(=O)(Nc1cncc(-c2ccc3nccc(-c4ccncc4)c3c2)c1)c1ccc(F)cc1F",
    "AUC/dose (ng·h/mL/mg/kg)": 1100
  }
]

* * *

test: Volume of distribution at steady state in mouse at 0.6 mg/kg, iv by HPLC/MS/MS analysis; format: ADME, organism-based; details: in vivo, read-out: Vdss
Reported metric: Vd

[
  {
    "Compound": "COc1ncc(-c2ccc3nccc(-c4ccnnc4)c3c2)cc1NS(=O)(=O)c1ccc(F)cc1F [OMIPALISIB]",
    "Reported metric": "Vd",
    "Measured": "1 L/kg"
  }
]

src = ChEMBL document CHEMBL5653618
